Values compiled from PubChem BioAssay.

molecular target: Mitogen-activated protein kinase 7 (Homo sapiens) (UniProt Q13164); assay: Gal4-ERK5 driven luciferase induction – cell-based, HTS, primary screen (AID 1508626); conditions: HeLa Gal4-ERK5 transactivation, 18 h, at 5 µM, stronger effect = higher value;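 further: luciferase driven by Gal4-ERK5 fusion binding five Gal4 sites before minimal TATA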
Sequence (Q13164 whole entry, looked up, the tested form may be a part): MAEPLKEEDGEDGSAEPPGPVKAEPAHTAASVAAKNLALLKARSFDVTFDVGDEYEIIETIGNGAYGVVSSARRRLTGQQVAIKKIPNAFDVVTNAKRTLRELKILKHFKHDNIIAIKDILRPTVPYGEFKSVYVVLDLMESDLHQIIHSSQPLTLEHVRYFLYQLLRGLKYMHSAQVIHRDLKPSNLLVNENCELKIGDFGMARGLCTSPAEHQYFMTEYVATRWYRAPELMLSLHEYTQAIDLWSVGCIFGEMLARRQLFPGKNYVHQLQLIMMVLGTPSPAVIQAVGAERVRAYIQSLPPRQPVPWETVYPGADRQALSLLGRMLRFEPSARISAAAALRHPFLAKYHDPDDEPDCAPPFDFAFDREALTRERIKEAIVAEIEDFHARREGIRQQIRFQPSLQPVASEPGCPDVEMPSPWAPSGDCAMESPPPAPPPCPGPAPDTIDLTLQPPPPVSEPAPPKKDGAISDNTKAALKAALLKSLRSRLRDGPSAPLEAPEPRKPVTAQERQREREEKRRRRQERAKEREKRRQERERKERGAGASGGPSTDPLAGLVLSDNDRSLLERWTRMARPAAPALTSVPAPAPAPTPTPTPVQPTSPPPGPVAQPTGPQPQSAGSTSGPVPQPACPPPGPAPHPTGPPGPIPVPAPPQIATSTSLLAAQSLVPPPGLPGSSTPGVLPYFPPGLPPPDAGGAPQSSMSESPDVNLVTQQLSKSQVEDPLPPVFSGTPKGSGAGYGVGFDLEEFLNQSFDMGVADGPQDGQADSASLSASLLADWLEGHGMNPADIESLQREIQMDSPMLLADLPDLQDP
The source made the active and inactive calls.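 How the source made its calls: active means luciferase signal above three times the same-plate solvent-only control wells; inactive means the rest.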
The reader will find reported luciferase signal values listed item by item below.

Take a look at these entries with their results.
O=C(OCC(O)CO)c1ccccc1Nc1ccnc2cc(Cl)ccc12 (stereo unspecified) ... 176 AU (active)
CCO/C([O-])=N/c1c[n+](N2CCOCC2)no1 ... 56 AU (inactive)
NC(=O)NC1NC(=O)NC1=O (stereo unspecified) ... 72 AU (inactive)
CN(C)C(=O)Oc1cccc([N+](C)(C)C)c1 ... 48 AU (inactive)
Cc1ccccc1OCC(O)CO (stereo unspecified) ... 44 AU (inactive)
CNC1(C)C2CCC(C2)C1(C)C (stereo unspecified) ... 108 AU (inactive)
O=c1[nH]c(=O)n([C@H]2C[C@H](O)[C@@H](CO)O2)cc1F ... 12 AU (inactive)
CCCCCCOc1ccccc1C(N)=O ... 48 AU (inactive)
CCn1cc(C(=O)O)c(=O)c2cc(F)c(N3CCNCC3)nc21 ... 40 AU (inactive)
NC(=O)OCC(COC(N)=O)c1ccccc1 ... 112 AU (inactive)

-- ask Check Mitogen-activated protein kinase 7 (Homo sapiens) (UniProt Q13164) data and give luciferase signal for CCOC(=O)[C@H](CCc1ccccc1)N[C@@H](C)C(=O)N1[C@H](C(=O)O)C[C@@H]2CCC[C@@H]21 .
-- reply 316 AU (inactive)

-- ask GET luciferase signal | system: Mitogen-activated protein kinase 7 (Homo sapiens) (UniProt Q13164) | item: Oc1ccc(Cl)cc1Cc1cc(Cl)ccc1O
-- reply 72 AU (inactive)

-- ask Report luciferase signal on Mitogen-activated protein kinase 7 (Homo sapiens) (UniProt Q13164) for this entry: CCN(CC)CCOC(=O)C(c1ccccc1)C1CCCCC1 (stereo unspecified)
-- reply 52 AU (inactive)

-- ask Please report the measured luciferase signal for CCN(CC)CCNC(=O)c1cc(Cl)c(N)cc1OC tested on Mitogen-activated protein kinase 7 (Homo sapiens) (UniProt Q13164).
-- reply 100 AU (inactive)

-- ask Enter recorded luciferase signal with Mitogen-activated protein kinase 7 (Homo sapiens) (UniProt Q13164) for Nc1nnc(-c2cccc(Cl)c2Cl)c(N)n1 here.
-- reply 44 AU (inactive)

-- ask Write down measured luciferase signal (Mitogen-activated protein kinase 7 (Homo sapiens) (UniProt Q13164)) for this compound. CCn1cc(C(=O)O)c(=O)c2cc(F)c(N3CCNC(C)C3)c(F)c21 (stereo unspecified)
-- reply 36 AU (inactive)

-- ask State the measured luciferase signal (Mitogen-activated protein kinase 7 (Homo sapiens) (UniProt Q13164)) of C[C@@H]1CC[C@@]2(OC1)O[C@H]1C[C@H]3[C@@H]4CC[C@H]5C[C@@H](O)CC[C@]5(C)[C@H]4CC(=O)[C@]3(C)[C@H]1[C@@H]2C
-- reply 52 AU (inactive)

-- ask For Mitogen-activated protein kinase 7 (Homo sapiens) (UniProt Q13164), give luciferase signal of the listed compound: CCN1CCN(c2cc3c(cc2F)c(=O)c(C(=O)O)cn3C2CC2)CC1
-- reply 144 AU (inactive)

-- ask Report the value of luciferase signal obtained on Mitogen-activated protein kinase 7 (Homo sapiens) (UniProt Q13164) for CN(C)CCc1c[nH]c2ccc(CS(=O)(=O)N3CCCC3)cc12 .
-- reply 52 AU (inactive)

-- ask Given CCC[C@H](N[C@@H](C)C(=O)N1[C@H](C(=O)O)C[C@@H]2CCCC[C@@H]21)C(=O)OCC , report its luciferase signal on Mitogen-activated protein kinase 7 (Homo sapiens) (UniProt Q13164).
-- reply 156 AU (inactive)

====

target: 6-phosphogluconate dehydrogenase, decarboxylating (Homo sapiens); assay: inhibition of human phosphogluconate dehydrogenase – biochemical, recombinant enzyme, NADPH absorbance, primary screen (AID 1159550); settings: recombinant 6PGD, NADPH absorbance 341 nm; at 10 µM; stronger effect = higher value
quantity: inhibition (%)
# unit: % | format: bare number

Guide cases for inhibition, answers given:
Nc1nccs1 ... 5.79
NC(N)=NS(=O)(=O)c1ccc(N)cc1 ... -6
O=C(O)CCCCC1CCSS1 (centres undefined) ... 14.8
CCCc1cc(C(N)=S)ccn1 ... 3.48
Cc1c(Cl)cccc1Nc1ccccc1C(=O)O ... -12.8
CC1(C)OC(=O)NC1=O ... 10.2

-- ask Write down inhibition measured for item C[C@@H]1C[C@H]2[C@@H]3CCC4=CC(=O)C=C[C@]4(C)[C@@]3(F)[C@@H](O)C[C@]2(C)[C@@]1(O)C(=O)COP(=O)(O)O
-- reply -4.39

-- ask Query inhibition for CC(=O)Oc1ccccc1C(=O)O
-- reply 15.9

-- ask For the compound CC(=O)OCC(COC(C)=O)OC(C)=O , report inhibition.
-- reply 1.31

-- ask Supply measured inhibition of CCN(CCCc1ccccc1)CCCc1ccccc1 in your reply.
-- reply 7.45

-- ask Could you please provide reported inhibition for O=C1NCC2(CCN(CCc3ccccc3)CC2)O1 ? Thanks!
-- reply 13.7

====

test: growth inhibition, single agent and combos, cell-based, chromothripsis tumors, cisplatin or BGB combos (AID 1671450); details: HDN33 neuroblastoma cells, single agent, at 5 µM, stronger effect = higher value;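 further: cells exposed to compound for four days; 0% = vehicle DMSO and 100% = cell killing by high DMSO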
quantity: inhibition

O=c1c(O)c(-c2ccc(O)c(O)c2)oc2cc(O)cc(O)c12 ... -15.2%
CC(N)C12CC3CC(CC(C3)C1)C2 (centres undefined) ... -36.9%
NC(=O)NO ... 3.76%
Cc1ccnc2c1NC(=O)c1cccnc1N2C1CC1 ... -21.1%
CCn1cc(C(=O)O)c(=O)c2cc3c(cc21)OCO3 ... 13.3%
O=C(O)P(=O)(O)O ... -52.1%
Nc1[nH]c(=O)ncc1F ... 9.06%
Nc1nc(=S)c2[nH]cnc2[nH]1 ... 80.7%

For the next question, use this molecule.
-- ask Give recorded inhibition. O=C(O)CCCCCCCC(=O)O
-- reply -34.5%

====

test: EMT-state selective cytotoxicity in co-culture – imaging, PC-3E GFP, TEM4-18 mCherry, primary screen (AID 1345086); settings: PC-3E GFP / TEM4-18 mCherry co-culture, imaging cell counts; at 1 µM; actives lie on both sides; counts scaled to control wells, 1 = unselective;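 further: normalised mesenchymal count divided by normalised epithelial count so high means epithelial killing; cells exposed to compound for 72 h before imaging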
Label met when red/green cell ratio (normalised) is at or above 1; otherwise label not met.

Cc1cc(CC(=O)O)n(C)c1C(=O)c1ccc(Cl)cc1 ... not met
CN(C)CCc1c[nH]c2ccc(CS(=O)(=O)N3CCCC3)cc12 ... met
CC(C)(C)CC(C)(C)c1ccc(O)c(Cc2ccc(Cl)cc2Cl)c1 ... not met
CSc1ccc2c(c1)C(N1CCN(C)CC1)Cc1ccccc1S2 (stereo not drawn) ... met
Cc1cc(C(C)(C)C)c(O)c(C(C)(C)C)c1 ... not met
O=C(O)CSCC(=O)NC1CCSC1=O (stereo not drawn) ... met
Oc1c(I)cc(I)c2cccnc12 ... met
CCCOc1ccc2nc(NC(=O)OC)[nH]c2c1 ... met

-- ask Textbook exercise: given the entry Cc1cc(N)c2ccccc2[n+]1CCCCCCCCCC[n+]1c(C)cc(N)c2ccccc21 , state whether its red/green cell ratio (normalised) is greater than or equal to 1.
-- reply not met

====

assay: EMT-state selective cytotoxicity in co-culture – imaging, PC-3E GFP, TEM4-18 mCherry, primary screen (AID 1345086); conditions: PC-3E GFP / TEM4-18 mCherry co-culture, imaging cell counts; at 1 µM; actives lie on both sides; counts scaled to control wells, 1 = unselective;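 further: normalised mesenchymal count divided by normalised epithelial count so high means epithelial killing; cells exposed to compound for 72 h before imaging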
quantity: red/green cell ratio (normalised)
Reply with the value as a number alone.

As a guide, the following entries are already answered.
CCN1CCCC(OC(=O)C(c2ccccc2)c2ccccc2)C1 (stereo not drawn) ... 1.28
Cc1cc(-c2ccccc2)nnc1NCCN1CCOCC1 ... 1.08
NC(N)=NS(=O)(=O)c1ccc(N)cc1 ... 1.03

-- ask Look up and state reported red/green cell ratio (normalised) for COc1ccc(C(=O)c2ccccc2O)c(O)c1
-- reply 1.27

-- ask Tell me its red/green cell ratio (normalised) given O=C(COc1ccc(Cl)cc1)N1CCN(Cc2ccc3c(c2)OCO3)CC1 as the entry.
-- reply 0.96

-- ask Identify measured red/green cell ratio (normalised) corresponding to CNC[C@H](O)[C@@H](O)[C@H](O)[C@H](O)CO
-- reply 0.7

-- ask Give the reported red/green cell ratio (normalised) for this molecule. COc1cc(NS(=O)(=O)c2ccc(N)cc2)nc(OC)n1
-- reply 1.12

-- ask Report measured red/green cell ratio (normalised); entry is O=c1c(-c2ccc(O)cc2)coc2cc(O)cc(O)c12
-- reply 0.95

-- ask Provide red/green cell ratio (normalised) value for the following molecule: NC(=O)c1ccccc1O
-- reply 0.96

-- ask Identify measured red/green cell ratio (normalised) corresponding to COC(=O)Nc1nc2ccc(Sc3ccccc3)cc2[nH]1
-- reply 1.07

-- ask Please report the measured red/green cell ratio (normalised) for CC(C)(C(=O)c1cccnc1)c1cccnc1
-- reply 0.85

-- ask Provide measured red/green cell ratio (normalised) value, entry: CCN(CC)CCNC(=O)c1cc(S(C)(=O)=O)ccc1OC
-- reply 1.26

-- ask Return red/green cell ratio (normalised) (reported value) for this molecule: CN1CCC(=C2c3ccccc3C=Cc3ccccc32)CC1
-- reply 1.06
